# Protocol description: Drug metabolism experiment on prodrug in SD rats: concentration in liver compared with blood
# Assay type: in vivo
# Condition description: male, Sprague-Dawley, rat, liver, po, 3 mg/kg, 24 h, SD rats, oral 3 mg/kg Compound 10; read-out: Ct Liver
# Method: Test 3: Drug metabolism experiment on prodrug in SD rats […] No randomization was performed. The weights of the animals were measured before administration, and healthy animals with similar body weights were selected for inclusion in the experiment. […]
Measured property: concentration at 24 h
Provide the measurement as a number trailed by its unit.

get_value(item= `Cc1cc(OCP(=O)(O)O)cc(C)c1Cc1ccc(O)c2c1CCC2(C)C` , readout=concentration at 24 h) returns 431 ng/g

* * *

# Protocol description: Drug metabolism experiment on prodrug in SD rats: concentration in liver compared with blood
# Type: in vivo
# Condition description: male, Sprague-Dawley, rat, plasma, po, 3 mg/kg, 24 h, SD rats, oral 3 mg/kg VK-2809; read-out: Ct Blood
Measured property: concentration at 24 h (ng/g)
The figure you give is taken to be in ng/g; do not add the unit.

// Cc1cc(OCP(=O)(O)O)cc(C)c1Cc1ccc(O)c(C(C)C)c1 [MB07444, reference compound] : concentration at 24 h value = 3.6

* * *

# Protocol description: Drug metabolism experiment on prodrug in SD rats: concentration in liver compared with blood
# Type: in vivo
# Condition description: male, Sprague-Dawley (SD), rat, plasma (heading prints blood), po, 3 mg/kg, 8 h, SD rats, oral 3 mg/kg Compound 10; read-out: Ct Blood
# concentration at 8 h per entry
Record the value in ng/g, omitting the unit from your answer.

In plain terms, Cc1cc(OCP(=O)(O)O)cc(C)c1Cc1ccc(O)c2c1CCC2(C)C [Compound 1] has a documented concentration at 8 h of 43.6

Let us examine a further case.
The compound listed as Cc1cc(OC[P@@]2(=O)OCC[C@@H](c3cccc(Cl)c3)O2)cc(C)c1Cc1ccc(O)c2c1CCC2(C)C [Compound 10] has a reported concentration at 8 h of 10.3

* * *

# Protocol description: Drug metabolism experiment on prodrug in SD rats: concentration in liver compared with blood
# Type: in vivo
# Condition description: male, Sprague-Dawley, rat, plasma, po, 3 mg/kg, 4 h, SD rats, oral 3 mg/kg VK-2809; read-out: Ct Blood
Measured property: concentration at 4 h

// field: concentration at 4 h; key: Cc1cc(OCP(=O)(O)O)cc(C)c1Cc1ccc(O)c(C(C)C)c1 [MB07444, reference compound] ; value = 16.9 ng/g

Shift focus to the following entry.
Consider Cc1cc(OC[P@@]2(=O)OCC[C@@H](c3cccc(Cl)c3)O2)cc(C)c1Cc1ccc(O)c(C(C)C)c1 [VK2809, reference compound] . Its measured concentration at 4 h is 4.8 ng/g

* * *

# Protocol description: Drug metabolism experiment on prodrug in SD rats: plasma pharmacokinetic parameters
# Assay type: in vivo
# Condition description: male, Sprague-Dawley (SD), rat, plasma, po, 3 mg/kg, plasma, oral 3 mg/kg Compound 10, read-out: Cmax
Listing of recorded Cmax by entry.
Report the value in µg/mL with no unit label.

The recorded Cmax for `Cc1cc(OCP(=O)(O)O)cc(C)c1Cc1ccc(O)c2c1CCC2(C)C` is 0.0451

# Cmax (molecule: `Cc1cc(OC[P@@]2(=O)OCC[C@@H](c3cccc(Cl)c3)O2)cc(C)c1Cc1ccc(O)c2c1CCC2(C)C` ) is 0.0199

* * *

# Protocol description: Drug metabolism experiment on prodrug in SD rats: concentration in liver compared with blood
# Assay type: in vivo
# Condition description: male, Sprague-Dawley, rat, liver, po, 3 mg/kg, 4 h, SD rats, oral 3 mg/kg VK-2809; read-out: Ct Liver
Below, each of the compounds is paired with its reported concentration at 4 h value.
Enter your answer as a number in ng/g; do not include the unit.

// field: concentration at 4 h; key: Cc1cc(OC[P@@]2(=O)OCC[C@@H](c3cccc(Cl)c3)O2)cc(C)c1Cc1ccc(O)c(C(C)C)c1 [VK2809, reference compound] ; value = 30

Next:
Noted for Cc1cc(OCP(=O)(O)O)cc(C)c1Cc1ccc(O)c(C(C)C)c1 [MB07444, reference compound] : its concentration at 4 h reads 952

* * *

# Protocol description: Drug metabolism experiment on prodrug in SD rats: concentration in liver compared with blood
# Type: in vivo
# Condition description: male, Sprague-Dawley (SD), rat, liver / plasma (heading prints blood), po, 3 mg/kg, 1 h, SD rats, oral 3 mg/kg Compound 9; read-out: Liver-to-blood ratio
Measured property: Kp at 1 h
// no unit string in output, number only

What the record says about Cc1cc(OCP(=O)(O)O)cc(C)c1Cc1ccc(O)c2c1CCC2(C)C [Compound 1] : Kp at 1 h is 20.8

* * *

# Target or test system: THR-α (Homo sapiens, UniProt P10827)
# Construct: TR-a LBD, GST purchased from Thermo Fisher
# Sequence (P10827 163-410 isoform P10827-2 limits assumed, other chains not shown): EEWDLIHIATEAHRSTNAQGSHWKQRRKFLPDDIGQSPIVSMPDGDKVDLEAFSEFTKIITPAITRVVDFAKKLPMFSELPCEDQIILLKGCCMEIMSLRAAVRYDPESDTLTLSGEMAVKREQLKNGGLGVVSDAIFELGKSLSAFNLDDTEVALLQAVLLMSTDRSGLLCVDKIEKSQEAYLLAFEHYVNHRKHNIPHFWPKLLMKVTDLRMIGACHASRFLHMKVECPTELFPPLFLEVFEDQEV
# Sequence (P19793 whole entry partner, other chains not shown, the tested form may be a part): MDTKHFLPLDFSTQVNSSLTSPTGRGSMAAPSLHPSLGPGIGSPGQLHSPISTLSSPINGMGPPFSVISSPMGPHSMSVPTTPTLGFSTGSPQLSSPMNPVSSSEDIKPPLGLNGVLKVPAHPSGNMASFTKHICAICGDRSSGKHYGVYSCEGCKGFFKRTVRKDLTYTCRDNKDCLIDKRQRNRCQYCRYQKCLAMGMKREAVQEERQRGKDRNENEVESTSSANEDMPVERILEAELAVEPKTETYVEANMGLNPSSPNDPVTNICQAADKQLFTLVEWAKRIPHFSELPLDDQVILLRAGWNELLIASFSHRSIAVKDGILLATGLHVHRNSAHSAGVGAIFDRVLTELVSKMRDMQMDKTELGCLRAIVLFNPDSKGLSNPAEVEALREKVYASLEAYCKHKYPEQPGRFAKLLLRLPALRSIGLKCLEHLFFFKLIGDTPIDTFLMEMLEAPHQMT
# Protocol description: Test of the binding ability of the compound to TRα (TRα LBD/RXRα, biotin-SRC2-2 co-activating peptide, 665/615 nm fluorescence ratio)
Measured property: EC50 (nM)
Value expressed in nM; do not type the unit.

Item Cc1cc(OCP(=O)(O)O)cc(C)c1Cc1ccc(O)c2c1CCCC2 [B, reference compound] ; assay system THR-α (Homo sapiens, UniProt P10827); EC50 reported as 230

Hey, THR-α (Homo sapiens, UniProt P10827) data for Cc1cc(OCP(=O)(O)O)cc(C)c1Cc1ccc(O)c(C(C)C)c1 [MB07444, reference compound] : EC50 came out at 51

// EC50 (THR-α (Homo sapiens, UniProt P10827)) for Cc1cc(OCP(=O)(O)O)cc(C)c1Cc1ccc(O)c2ccccc12 [A, reference compound] = 280

// assay THR-α (Homo sapiens, UniProt P10827), entry `Cc1cc(OCP(=O)(O)O)cc(C)c1Cc1ccc(O)c2c1CCC2(C)C` , EC50 value = 41

So the reported EC50 for `CC1(C)CCc2c(Cc3c(Cl)cc(OCP(=O)(O)O)cc3Cl)ccc(O)c21` , on THR-α (Homo sapiens, UniProt P10827), turned out to be 50

Entry `Cc1cc(OCP(=O)(O)O)cc(C)c1Cc1ccc(O)c2c1CCCC2(C)C` : EC50 on THR-α (Homo sapiens, UniProt P10827) = 270

* * *

# Protocol description: Drug metabolism experiment on prodrug in SD rats: concentration in liver compared with blood
# Format: in vivo
# Condition description: male, Sprague-Dawley, rat, plasma, po, 3 mg/kg, 8 h, SD rats, oral 3 mg/kg Compound 9; read-out: Ct Blood
Measured property: concentration at 8 h (ng/g)
Entry rule: numbers only, all in ng/g.

According to the records, this compound `Cc1cc(OCP(=O)(O)O)cc(C)c1Cc1ccc(O)c2c1CCC2(C)C` displays concentration at 8 h of 29.9

* * *

# Protocol description: Drug metabolism experiment on prodrug in SD rats: concentration in liver compared with blood
# Type: in vivo
# Condition description: male, Sprague-Dawley (SD), rat, liver, po, 3 mg/kg, 8 h, SD rats, oral 3 mg/kg Compound 10; read-out: Ct Liver
Some molecules, each annotated with its measured concentration at 8 h.
Give just the numeric value; ng/g need not be written.

The recorded concentration at 8 h for Cc1cc(OCP(=O)(O)O)cc(C)c1Cc1ccc(O)c2c1CCC2(C)C [Compound 1] is 1710

Consider now this further molecule.
The molecule Cc1cc(OC[P@@]2(=O)OCC[C@@H](c3cccc(Cl)c3)O2)cc(C)c1Cc1ccc(O)c2c1CCC2(C)C [Compound 10] showed concentration at 8 h equal to 46.5

* * *

# Protocol description: Drug metabolism experiment on prodrug in SD rats: concentration in liver compared with blood
# Format: in vivo
# Condition description: male, Sprague-Dawley (SD), rat, liver, po, 3 mg/kg, 24 h, SD rats, oral 3 mg/kg Compound 9; read-out: Ct Liver
Measured property: concentration at 24 h

Lab book: concentration at 24 h of Cc1cc(OCP(=O)(O)O)cc(C)c1Cc1ccc(O)c2c1CCC2(C)C [Compound 1] noted as 396 ng/g

* * *

Catalogue of concentration at 1 h values
# Protocol description: Drug metabolism experiment on prodrug in SD rats: concentration in liver compared with blood
# Assay type: in vivo
# Condition description: male, Sprague-Dawley, rat, liver, po, 3 mg/kg, 1 h, SD rats, oral 3 mg/kg VK-2809; read-out: Ct Liver
Give your result in ng/g as a bare value.

Record Cc1cc(OC[P@@]2(=O)OCC[C@@H](c3cccc(Cl)c3)O2)cc(C)c1Cc1ccc(O)c(C(C)C)c1 [VK2809, reference compound] . Reported concentration at 1 h: 39

More entries:
Record Cc1cc(OCP(=O)(O)O)cc(C)c1Cc1ccc(O)c(C(C)C)c1 [MB07444, reference compound] . Reported concentration at 1 h: 214
